Recorded values, source patent US20240109903A1.

- System: NCI-H23
- protocol.text: NCI 60 five-dose screen NCI-H23
- Assay type: cell-based
- measurement.context: Homo sapiens, five-dose
observation.type: IC (TGI) (µM)
Dear colleague, please return just the value in µM, with no unit written.

Example entries and their recorded answers appear below.
FC(F)(F)c1cc2c(Cl)ncnc2n1CCN1CCCCC1
38.9
FC(F)(F)c1cc2c(Cl)ncnc2n1CCN1CCOCC1
74.1
FC(F)(F)CN1CCN(CCn2c(C(F)(F)F)cc3c(Cl)ncnc32)CC1
26.9
OC1CCC(Cn2c(C(F)(F)F)cc3c(Cl)ncnc32)CC1 (centres unmarked)
11.5

Kindly review the next compound as well.
### Prompt Can you look up the measured IC (TGI) of FC(F)(F)c1cc2c(Cl)ncnc2n1CCC1CCOCC1 for me?
### Response 10

* * *

- System: HOP-92
- protocol.text: NCI 60 five-dose screen HOP-92
- Type: cell-based
- measurement.context: Homo sapiens
Overview of reported IC50 across a group of compounds:
Field format: number, assumed µM, no unit text.

Solved cases (2 shown):
Fc1ccc(N2CC(Cn3c(C(F)(F)F)cc4c(Cl)ncnc43)C2)c(F)c1 [NUCC-0226695]
26.9
O=c1ccc(Cn2c(C(F)(F)F)cc3c(Cl)ncnc32)c[nH]1 [NUCC-0226698]
100

Shift focus to the following entry.
### Prompt GET /values?readout=IC50&item= COc1cc(Cn2c(C(F)(F)F)cc3c(Cl)ncnc32)ccn1 [NUCC-0226694]
### Response 33.9

* * *

- System: SNB-19
- protocol.text: NCI 60 five-dose screen SNB-19
- Assay type: cell-based
- measurement.context: Homo sapiens
observation.type: pIC50
Worth noting: pIC50 values are minus log10 of concentrations stated in mol/L.

O=c1ccc(Cn2c(C(F)(F)F)cc3c(Cl)ncnc32)c[nH]1
4.40
COc1cc(Cn2c(C(F)(F)F)cc3c(Cl)ncnc32)ccn1
4.67

Switching to the query record.
### Prompt # input compound: Fc1ccc(N2CC(Cn3c(C(F)(F)F)cc4c(Cl)ncnc43)C2)c(F)c1 ; wanted: its pIC50
### Response 4.56

* * *

Listed below: GI50 values for each entry.
- System: NCI-H460
- protocol.text: NCI 60 five-dose screen NCI-H460
- Format: cell-based
- measurement.context: Homo sapiens, five-dose
# number then unit; no other words

FC(F)(F)c1cc2c(Cl)ncnc2n1CCC1CCOCC1
2.4 µM

### Prompt Param item = FC(F)(F)CN1CCN(CCn2c(C(F)(F)F)cc3c(Cl)ncnc32)CC1 ; retrieve measured GI50.
### Response 2.69 µM

### Prompt Param item = FC(F)(F)c1cc2c(Cl)ncnc2n1CCN1CCCCC1 ; retrieve measured GI50.
### Response 18.2 µM

### Prompt Which value of GI50 has been reported for OC1CCC(Cn2c(C(F)(F)F)cc3c(Cl)ncnc32)CC1 (centres unmarked) in the records?
### Response 4.79 µM

### Prompt Which GI50 value belongs to FC(F)(F)c1cc2c(Cl)ncnc2n1CCN1CCOCC1 ?
### Response 23.4 µM

* * *

- Tested on: HL-60(TB)
- protocol.text: NCI 60 five-dose screen HL-60(TB)
- Format: cell-based
- measurement.context: Homo sapiens, five-dose
observation.type: GI50 (nM)
Entry rule: numbers only, all in nM.

Study these solved cases before continuing.
OC1CCC(Cn2c(C(F)(F)F)cc3c(Cl)ncnc32)CC1 (centres unmarked)
2630
FC(F)(F)c1cc2c(Cl)ncnc2n1CCN1CCCCC1
2090
FC(F)(F)CN1CCN(CCn2c(C(F)(F)F)cc3c(Cl)ncnc32)CC1
2750
FC(F)(F)c1cc2c(Cl)ncnc2n1CCC1CCOCC1
2240

Pending molecule:
### Prompt Entry under review: FC(F)(F)c1cc2c(Cl)ncnc2n1CCN1CCOCC1 . Reported GI50?
### Response 2090

* * *

The molecules listed here are annotated with their CC50.
- System: SF-268
- protocol.text: NCI 60 five-dose screen SF-268
- Type: cell-based
- measurement.context: Homo sapiens, five-dose, read-out: LC50 (the source's name) (converted)
# value in µM; strip the unit string

### Prompt Fill in: CC50 of FC(F)(F)c1cc2c(Cl)ncnc2n1CCN1CCCCC1 is ___
### Response 93.3

### Prompt Give the measured CC50 of OC1CCC(Cn2c(C(F)(F)F)cc3c(Cl)ncnc32)CC1 (centres unmarked) .
### Response 37.2

### Prompt Param item = FC(F)(F)c1cc2c(Cl)ncnc2n1CCN1CCOCC1 ; retrieve measured CC50.
### Response 77.6

### Prompt Report CC50 for FC(F)(F)CN1CCN(CCn2c(C(F)(F)F)cc3c(Cl)ncnc32)CC1 please.
### Response 70.8

### Prompt Query (molecule): FC(F)(F)c1cc2c(Cl)ncnc2n1CCC1CCOCC1 ; field requested: CC50
### Response 44.7

* * *

- Test system: RXF 393
- protocol.text: NCI 60 five-dose screen RXF 393
- Assay type: cell-based
- measurement.context: Homo sapiens, five-dose
observation.type: IC50 (µM)
Kindly answer with a numeric value in µM, unit omitted.

Some solved cases for reference:
OC1CCC(Cn2c(C(F)(F)F)cc3c(Cl)ncnc32)CC1 (centres unmarked)
37.2
FC(F)(F)c1cc2c(Cl)ncnc2n1CCC1CCOCC1
24
FC(F)(F)c1cc2c(Cl)ncnc2n1CCN1CCCCC1
45.7
FC(F)(F)c1cc2c(Cl)ncnc2n1CCN1CCOCC1
42.7

### Prompt Name the reported IC50 value associated with the compound FC(F)(F)CN1CCN(CCn2c(C(F)(F)F)cc3c(Cl)ncnc32)CC1
### Response 30.9

* * *

- Tested on: MOLT-4
- protocol.text: NCI 60 five-dose screen MOLT-4
- Format: cell-based
- measurement.context: Homo sapiens, five-dose
// assign t if GI50 falls strictly below 3000 nM, else f (ties count as f)

Use the examples below as a reference point.
FC(F)(F)c1cc2c(Cl)ncnc2n1CCC1CCOCC1
t
OC1CCC(Cn2c(C(F)(F)F)cc3c(Cl)ncnc32)CC1 (centres unmarked)
t
FC(F)(F)c1cc2c(Cl)ncnc2n1CCN1CCCCC1
f

### Prompt API: query returns whether the molecule falls strictly under 3000 nM in GI50. Query: FC(F)(F)c1cc2c(Cl)ncnc2n1CCN1CCOCC1
### Response f

### Prompt # TODO verify GI50 < 3000 nM strictly for this molecule: FC(F)(F)CN1CCN(CCn2c(C(F)(F)F)cc3c(Cl)ncnc32)CC1
### Response t

* * *

IC50 by entry:
- Tested on: SK-OV-3
- protocol.text: NCI 60 five-dose screen SK-OV-3
- Format: cell-based
- measurement.context: Homo sapiens
Provide only the numeric value, understood in µM.

Sample records with IC50:
Fc1ccc(N2CC(Cn3c(C(F)(F)F)cc4c(Cl)ncnc43)C2)c(F)c1
28.8
O=c1ccc(Cn2c(C(F)(F)F)cc3c(Cl)ncnc32)c[nH]1
100

Now look at this one.
### Prompt Query: IC50; subject: COc1cc(Cn2c(C(F)(F)F)cc3c(Cl)ncnc32)ccn1
### Response 32.4

* * *

- Tested on: NCI-H322M
- protocol.text: NCI 60 five-dose screen NCI-H322M
- Assay type: cell-based
- measurement.context: Homo sapiens, five-dose
GI50 less than 4 µM is 1.0; GI50 greater than or equal to 4 µM is 0.0.

OC1CCC(Cn2c(C(F)(F)F)cc3c(Cl)ncnc32)CC1 (centres unmarked) [NUCC-0226689]
1.0
FC(F)(F)c1cc2c(Cl)ncnc2n1CCN1CCCCC1 [NUCC-0226679]
0.0
FC(F)(F)CN1CCN(CCn2c(C(F)(F)F)cc3c(Cl)ncnc32)CC1 [NUCC-0226683]
0.0
FC(F)(F)c1cc2c(Cl)ncnc2n1CCN1CCOCC1 [NUCC-0226680]
0.0

### Prompt Below 4 µM on GI50? Entry FC(F)(F)c1cc2c(Cl)ncnc2n1CCC1CCOCC1 [NUCC-0226674]
### Response 1.0

* * *

- Tested on: UACC-62
- protocol.text: NCI 60 five-dose screen UACC-62
- Format: cell-based
- measurement.context: Homo sapiens
observation.type: IC50 (µM)
Numeric only. Scale: µM

Consider the following illustrative entries.
COc1cc(Cn2c(C(F)(F)F)cc3c(Cl)ncnc32)ccn1 [NUCC-0226694]
15.8
O=c1ccc(Cn2c(C(F)(F)F)cc3c(Cl)ncnc32)c[nH]1 [NUCC-0226698]
11

Here is another compound to look at.
### Prompt Would you kindly share the measured IC50 for Fc1ccc(N2CC(Cn3c(C(F)(F)F)cc4c(Cl)ncnc43)C2)c(F)c1 [NUCC-0226695] ?
### Response 5.62

* * *

- Test system: EKVX
- protocol.text: NCI 60 five-dose screen EKVX
- Assay type: cell-based
- measurement.context: Homo sapiens, five-dose, read-out: LC50 (the source's name) (converted)
observation.type: CC50

In the examples that follow, each entry is paired with its recorded CC50.
FC(F)(F)c1cc2c(Cl)ncnc2n1CCN1CCOCC1
≥ 100 µM
FC(F)(F)c1cc2c(Cl)ncnc2n1CCC1CCOCC1
64.6 µM
FC(F)(F)c1cc2c(Cl)ncnc2n1CCN1CCCCC1
≥ 100 µM
FC(F)(F)CN1CCN(CCn2c(C(F)(F)F)cc3c(Cl)ncnc32)CC1
≥ 100 µM

Okay, next one:
### Prompt What measured CC50 goes with OC1CCC(Cn2c(C(F)(F)F)cc3c(Cl)ncnc32)CC1 (centres unmarked) ?
### Response ≥ 100 µM
